# Tested on: mutant HIV-1 strain L100I
# TEST SUMMARY: microbe, parasite or virus in culture
# Assay type: cell-based
# SETUP CONDITIONS: Human immunodeficiency virus 1, MT4, read-out: EC50 L100I
The label Condition met is reserved for EC50 strictly under 6 nM; Condition not met covers values equal to or above it.

- COMPOUND: "CNS(=O)(=O)c1ccc(CN2CCC(Nc3nc(Oc4c(C)cc(C#N)cc4C)c4scnc4n3)CC2)cc1 [SZ2]"
  LABEL: "Condition not met"
- COMPOUND: "Cc1cc(C#N)cc(C)c1Oc1nc(NC2CCN(Cc3ccc(S(C)(=O)=O)cc3)CC2)nc2scnc12 [TZ3]"
  LABEL: "Condition met"
- COMPOUND: "Cc1cc(C#N)cc(C)c1Oc1nc(NC2CCN(Cc3ccc(S(N)(=O)=O)cc3)CC2)nc2ncsc12 [SZ1]"
  LABEL: "Condition not met"
- COMPOUND: "Cc1cc(C#N)cc(C)c1Oc1nc(NC2CCN(Cc3ccncc3)CC2)nc2scnc12 [TZ4]"
  LABEL: "Condition not met"
- COMPOUND: "Cc1cc(C#N)cc(C)c1Oc1nc(NC2CCN(Cc3ccc(S(C)(=O)=O)cc3)CC2)nc2ncsc12 [SZ6]"
  LABEL: "Condition met"
- COMPOUND: "Cc1cc(C#N)cc(C)c1Oc1nc(NC2CCN(Cc3ccc(C(N)=O)cc3)CC2)nc2scnc12 [TZ2]"
  LABEL: "Condition not met"
- COMPOUND: "Cc1cc(C#N)cc(C)c1Oc1nc(NC2CCN(Cc3ccc(S(N)(=O)=O)cc3)CC2)nc2scnc12 [TZ1]"
  LABEL: "Condition not met"
- COMPOUND: "Cc1cc(C#N)cc(C)c1Oc1nc(NC2CCN(Cc3ccncc3)CC2)nc2ncsc12 [SZ7]"
  LABEL: "Condition met"
